pKi values, listed per item
- experimentalSystem: purified human autoBACE-2 (Homo sapiens (Human))
pKi: −log10 of the molar value.

# compound, pKi
records = [
    ("C[C@@]1(c2cc(NC(=O)c3ccc(C(F)(F)F)cn3)ccc2F)CS(=O)(=O)C2(CCOCC2)C(=N)N1", "> 7.30"),
    ("C[C@@]1(c2cc(NC(=O)c3ccc(C(F)(F)F)cn3)ccc2F)CS(=O)(=O)[C@]2(CCOC2)C(=N)N1 [Example 62d]", "> 7.30"),
    ("C[C@@]1(c2sc(-c3ccnc(-c4ccoc4)c3)cc2Cl)CS(=O)(=O)[C@]2(CCOC2)C(=N)N1 [Example 62j]", "> 7.30"),
    ("C[C@@]1(c2sc(-c3ccnc(-c4cccs4)c3)cc2Cl)CS(=O)(=O)[C@]2(CCOC2)C(=N)N1 [Example 62k]", "> 7.70"),
]

----------
- experimentalSystem: purified human autoBACE-2 (Homo sapiens (Human))

# molecule, Ki
measured = [
    ("C[C@@]1(c2sc(C(=O)Nc3cccc(F)n3)cc2Cl)CS(=O)(=O)C2(CC2)C(=N)N1 [Example 79c]", "< 50 nM"),
    ("C[C@@]1(c2sc(-c3cncc(-c4ncco4)c3)cc2Cl)CS(=O)(=O)[C@@]2(CCOC2)C(=N)N1 [Example 63h]", "< 20 nM"),
    ("C[C@@]1(c2sc(C#CCc3cc(F)c(F)c(F)c3)cc2Cl)CS(=O)(=O)C2(CCC2)C(=N)N1 [Example 78]", "< 20 nM"),
    ("C[C@@]1(c2sc(-c3cccc(-c4nnco4)c3)cc2Cl)CS(=O)(=O)C2(CCC2)C(=N)N1 [Example 61a]", "< 50 nM"),
]

----------
- experimentalSystem: purified human autoBACE-2 (Homo sapiens (Human), UniProt Q9Y5Z0)
- Sequence (Q9Y5Z0 63-473 limits assumed): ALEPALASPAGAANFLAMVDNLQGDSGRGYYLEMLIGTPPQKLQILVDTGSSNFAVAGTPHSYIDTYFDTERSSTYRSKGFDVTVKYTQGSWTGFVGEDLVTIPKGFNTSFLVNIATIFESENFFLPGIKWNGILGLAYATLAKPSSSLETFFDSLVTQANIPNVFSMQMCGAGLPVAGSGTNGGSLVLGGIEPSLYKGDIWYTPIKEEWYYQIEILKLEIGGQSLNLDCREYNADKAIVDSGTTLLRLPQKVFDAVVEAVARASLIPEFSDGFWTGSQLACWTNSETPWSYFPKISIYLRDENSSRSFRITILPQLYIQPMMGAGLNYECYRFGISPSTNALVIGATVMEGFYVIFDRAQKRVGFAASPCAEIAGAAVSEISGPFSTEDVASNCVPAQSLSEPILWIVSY
Ki values, listed per item

# compound, Ki
rows = [
    ("C[C@@]1(c2cc(NC(=O)c3ccc(C#N)cn3)ccc2F)CS(=O)(=O)C2(CCC2)C(N)=N1", "< 20 nM"),
    ("COc1ccc(C(=O)Nc2ccc(F)c([C@]3(C)CS(=O)(=O)C4(CCOCC4)C(=N)N3)c2)nc1", "< 20 nM"),
    ("Cc1cccc(NC(=O)c2cc(Cl)c([C@]3(C)CS(=O)(=O)C4(CC4)C(=N)N3)s2)n1 [Example 79d]", "< 20 nM"),
]
